# System: Mus musculus
# Run Description: Anticonvulsant activity in mouse assessed as protection against maximal electroshock-induced hindlimb tonic extensor component of seizure at 300 mg/kg, ip after 30 mins by MES test
# Assay type: functional, organism-based
# Parameters: dose 300 mg/kg
Active and inactive are the calls of the source. The rule behind the calls is not given here.
Classes used: active, inactive

Compound: CN1C(=O)CC(C(=O)CCl)(c2ccccc2)C1=O (stereo not drawn)
Answer Label: active

Compound: CN1C(=O)CC(C)(c2ccccc2)C1=O (stereo not drawn) [METHSUXIMIDE]
Answer Label: active

Compound: CN1C(=O)CC(c2ccc(NC(=O)CBr)cc2)C1=O (stereo not drawn)
Answer Label: inactive

Compound: CN1C(=O)CC(CCNC(=O)CCl)(c2ccccc2)C1=O (stereo not drawn)
Answer Label: inactive

Compound: CN1C(=O)CC(CCCNC(=O)/C=C\C(=O)O)(c2ccccc2)C1=O (stereo not drawn)
Answer Label: inactive

Compound: CN1C(=O)CC(CCCNC(=O)CCl)(c2ccccc2)C1=O (stereo not drawn)
Answer Label: inactive

Compound: CN1C(=O)CC(CCN2C(=O)C=CC2=O)(c2ccccc2)C1=O (stereo not drawn)
Answer Label: inactive

Compound: CN1C(=O)CC(c2ccc(NC(=O)CI)cc2)C1=O (stereo not drawn)
Answer Label: inactive

Compound: CCC1(C)CC(=O)NC1=O (stereo not drawn) [ETHOSUXIMIDE]
Answer Label: inactive

Compound: CN1C(=O)CC(c2ccc(N3C(=O)C=CC3=O)cc2)C1=O (stereo not drawn)
Answer Label: inactive

Compound: CN1C(=O)CC(c2ccc(NC(=O)/C=C\C(=O)O)cc2)C1=O (stereo not drawn)
Answer Label: inactive

Compound: CN1C(=O)CC(c2ccc(NC(=O)CCl)cc2)C1=O (stereo not drawn)
Answer Label: inactive

Compound: CN1C(=O)CC(CCNC(=O)/C=C\C(=O)O)(c2ccccc2)C1=O (stereo not drawn)
Answer Label: inactive

Compound: CN1C(=O)CC(C(=O)CBr)(c2ccccc2)C1=O (stereo not drawn)
Answer Label: inactive

Compound: CN1C(=O)CC(C(=O)c2ccc(NC(=O)/C=C\C(=O)O)cc2)(c2ccccc2)C1=O (stereo not drawn)
Answer Label: inactive

Compound: CN1C(=O)CC(CCCN2C(=O)C=CC2=O)(c2ccccc2)C1=O (stereo not drawn)
Answer Label: inactive

Compound: CN1C(=O)CC(C(=O)c2ccc(NC(=O)CBr)cc2)(c2ccccc2)C1=O (stereo not drawn)
Answer Label: inactive

Compound: CN1C(=O)CC(C(=O)c2ccc(N3C(=O)C=CC3=O)cc2)(c2ccccc2)C1=O (stereo not drawn)
Answer Label: inactive

---

# Tested on: Mus musculus
# Run Description: Anticonvulsant activity in mouse assessed as protection against maximal electroshock-induced hindlimb tonic extensor component of seizure at 300 mg/kg, ip after 4 hrs by MES test
# Type: functional, organism-based
# Design: dose 300 mg/kg
Active and inactive are the calls of the source. The rule behind the calls is not given here.
Classes used: 1 (yes) for active, 0 (no) for inactive

Compound: CN1C(=O)CC(CCCNC(=O)CCl)(c2ccccc2)C1=O (stereo unspecified)
Answer Label: 0 (no)
--
Compound: CN1C(=O)CC(c2ccc(NC(=O)/C=C\C(=O)O)cc2)C1=O (stereo unspecified)
Answer Label: 0 (no)
--
Compound: CN1C(=O)CC(C(=O)c2ccc(NC(=O)CBr)cc2)(c2ccccc2)C1=O (stereo unspecified)
Answer Label: 0 (no)
--
Compound: CCC1(C)CC(=O)NC1=O (stereo unspecified) [ETHOSUXIMIDE]
Answer Label: 0 (no)
--
Compound: CN1C(=O)CC(C(=O)CCl)(c2ccccc2)C1=O (stereo unspecified)
Answer Label: 1 (yes)
--
Compound: CN1C(=O)CC(CCCN2C(=O)C=CC2=O)(c2ccccc2)C1=O (stereo unspecified)
Answer Label: 0 (no)
--
Compound: CN1C(=O)CC(C(=O)c2ccc(N3C(=O)C=CC3=O)cc2)(c2ccccc2)C1=O (stereo unspecified)
Answer Label: 0 (no)
--
Compound: CN1C(=O)CC(c2ccc(NC(=O)CBr)cc2)C1=O (stereo unspecified)
Answer Label: 0 (no)
--
Compound: CN1C(=O)CC(C)(c2ccccc2)C1=O (stereo unspecified) [METHSUXIMIDE]
Answer Label: 1 (yes)
--
Compound: CN1C(=O)CC(c2ccc(NC(=O)CCl)cc2)C1=O (stereo unspecified)
Answer Label: 0 (no)
--
Compound: CN1C(=O)CC(CCCNC(=O)/C=C\C(=O)O)(c2ccccc2)C1=O (stereo unspecified)
Answer Label: 0 (no)
